System: S. cerevisiae Mot1-301 ts growth rescue, BacTiter-Glo ATP luminescence
experimental-protocol: restored Mot1-301 yeast growth at 38.5C – whole organism, S. cerevisiae, Mot1-301 ts mutant, luminescence, dose retest, SUMOylation pathway inhibitor project, confirmation (AID 463204);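 also: growth at restrictive 38.5 degrees C of Mot1-301 OY566 strain; actives raise luminescence by restoring growth of the ts mutant at high temperature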
The source made the active and inactive calls.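 The calls were made as follows: active = AC50 no more than ten times the top concentration tested, that is within one log above it; inconclusive = flat curve fit with activity between 30% and 70%, or invalid poor fit; inactive = AC50 beyond ten times the top tested dose.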
Possible outcomes: active, inactive

molecule=Cc1ccc(N/C=C(\C#N)c2ccc(OCCCF)cc2)cc1 system_under_test="S. cerevisiae Mot1-301 ts growth rescue, BacTiter-Glo ATP luminescence" class_name=inactive
molecule=CN(C)CC/C=C1\c2ccccc2Sc2ccc(Cl)cc21 system_under_test="S. cerevisiae Mot1-301 ts growth rescue, BacTiter-Glo ATP luminescence" class_name=inactive
molecule=O=C(c1cc(Cl)c(=O)n(Cc2ccc(Cl)cc2)c1)N1CCOCC1 system_under_test="S. cerevisiae Mot1-301 ts growth rescue, BacTiter-Glo ATP luminescence" class_name=inactive
molecule="CCOC(=O)C1CCN(CC(O)COCc2ccccc2)CC1 (stereo not given)" system_under_test="S. cerevisiae Mot1-301 ts growth rescue, BacTiter-Glo ATP luminescence" class_name=inactive
molecule=Cc1cc(-c2ccccc2)n(-c2ccc(C(=O)NC(C)C)cc2)n1 system_under_test="S. cerevisiae Mot1-301 ts growth rescue, BacTiter-Glo ATP luminescence" class_name=inactive
molecule=CCN(C(=O)COC(=O)c1c(-c2ccccc2)noc1C)c1c(N)n(Cc2ccccc2)c(=O)[nH]c1=O system_under_test="S. cerevisiae Mot1-301 ts growth rescue, BacTiter-Glo ATP luminescence" class_name=inactive
molecule=COc1ccc2c(c1)OC[C@H]1[C@H]2N2C(=O)c3cc(F)ccc3NC(=O)[C@@]2(C)[C@H]1c1ccccc1 system_under_test="S. cerevisiae Mot1-301 ts growth rescue, BacTiter-Glo ATP luminescence" class_name=active
molecule="CN1c2ccccc2-c2nc3ccccc3n2C1c1ccncc1 (stereo not given)" system_under_test="S. cerevisiae Mot1-301 ts growth rescue, BacTiter-Glo ATP luminescence" class_name=inactive
molecule=Cn1c(SCC(=O)Nc2nnc(-c3ccccc3)o2)nnc1C1CC1 system_under_test="S. cerevisiae Mot1-301 ts growth rescue, BacTiter-Glo ATP luminescence" class_name=inactive
molecule=Cc1cc(-c2ccc(C(C)C)c(S(=O)(=O)N3CC(=O)Nc4ccccc43)c2)on1 system_under_test="S. cerevisiae Mot1-301 ts growth rescue, BacTiter-Glo ATP luminescence" class_name=inactive
